parameter.measured: Ki (mM)
The response must be a number in mM with no trailing unit.

Exercise: Which Ki is reported with matrix metalloproteinase-9 (MMP-9) (Homo sapiens) for this entry: O=C(O)CC[C@H](NP(=O)(O)OCc1ccc(-c2ccccc2)cc1)C(=O)O [NC-2-29] ?
Solution: 5

----------
target: purified PSMA (Homo sapiens, UniProt Q04609); construct: against purified PSMA from LNCaP cells by our published method; endogenous in cells; test: PMSA Inhibition Assay (HPLC, PAB-Glu-γ-Glu substrate); settings: read-out: IC50 against PSMA
Sequence (Q04609 whole entry): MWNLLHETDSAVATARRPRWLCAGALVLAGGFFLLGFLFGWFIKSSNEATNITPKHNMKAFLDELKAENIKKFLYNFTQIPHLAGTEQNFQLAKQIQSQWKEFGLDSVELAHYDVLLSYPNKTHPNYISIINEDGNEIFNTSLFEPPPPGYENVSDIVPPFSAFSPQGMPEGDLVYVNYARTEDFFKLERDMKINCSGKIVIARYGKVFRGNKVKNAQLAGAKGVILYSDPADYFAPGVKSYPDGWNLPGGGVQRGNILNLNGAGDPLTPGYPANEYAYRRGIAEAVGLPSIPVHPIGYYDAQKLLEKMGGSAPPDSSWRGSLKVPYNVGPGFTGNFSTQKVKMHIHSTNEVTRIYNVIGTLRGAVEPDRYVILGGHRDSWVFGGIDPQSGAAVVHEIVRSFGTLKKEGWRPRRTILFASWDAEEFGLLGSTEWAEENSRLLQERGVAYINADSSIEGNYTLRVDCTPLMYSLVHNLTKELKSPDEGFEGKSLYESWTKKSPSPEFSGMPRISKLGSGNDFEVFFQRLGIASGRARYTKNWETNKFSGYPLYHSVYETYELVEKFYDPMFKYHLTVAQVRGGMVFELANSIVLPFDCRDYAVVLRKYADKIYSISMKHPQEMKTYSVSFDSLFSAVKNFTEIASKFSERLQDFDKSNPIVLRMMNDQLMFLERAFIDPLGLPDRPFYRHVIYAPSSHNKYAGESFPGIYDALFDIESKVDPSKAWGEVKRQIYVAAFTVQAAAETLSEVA
parameter.measured: IC50 (nM)
The response must be a number in nM with no trailing unit.

Exercise: Find the recorded IC50 belonging to O=C1C=CC2C(=C1)Oc1cc(O)ccc1C2c1ccc(NC(=S)N[C@@H](COP(=O)(O)N[C@@H](CCC(=O)O)C(=O)O)C(=O)O)cc1C(=O)O (some centres unmarked) and report it.
Solution: 85
